// data source = patent US8017612B2

test target: HCV polymerase (NS5B) type 1a (Hepatitis C virus genotype 1a, UniProt P26664)
Construct: made in house; host or cells: Escherichia coli (by the 'similar method' of the 1b enzyme)
assay info: Assay of enzyme (HCV polymerase) inhibitory activity, type 1a enzyme
Type: biochemical, HCV type 1a (cloned from the blood of patients)
experimental setup: HCV polymerase inhibitory activity IC50, 1a, type 1a enzyme
pIC50: −log10 of the molar value.
Recorded pIC50 values for a group of compounds are listed next.

line notation: CCC(F)(F)c1ccc(CNC(=O)[C@H]2CN(C(=O)CNc3ccn(C)n3)CCN2S(=O)(=O)c2ccc(OC(F)(F)F)cc2)cc1
test target: HCV polymerase (NS5B) type 1a (Hepatitis C virus genotype 1a, UniProt P26664)
pIC50: 6.00 to 7.00
//
line notation: O=C(NCc1ccc(OC(F)F)cc1)[C@H]1CN(c2nn3c(C(F)(F)F)cc(=O)nc3s2)CCN1S(=O)(=O)c1ccc(OC(F)(F)F)cc1
test target: HCV polymerase (NS5B) type 1a (Hepatitis C virus genotype 1a, UniProt P26664)
pIC50: > 7.00
//
line notation: O=C(NCc1ccc(OC(F)(F)F)cc1)[C@H]1CN(c2nc3cccnc3s2)CCN1S(=O)(=O)c1ccc(OC(F)(F)F)cc1
test target: HCV polymerase (NS5B) type 1a (Hepatitis C virus genotype 1a, UniProt P26664)
pIC50: > 7.00
//
line notation: CC(=O)N1CCC(CNC(=O)[C@H]2CN(C(C)=O)CCN2S(=O)(=O)c2ccc(OC(F)(F)F)cc2)CC1
test target: HCV polymerase (NS5B) type 1a (Hepatitis C virus genotype 1a, UniProt P26664)
pIC50: < 6.00
//
line notation: CCCc1ccc(CNC(=O)[C@H]2CN(c3ccc(C(=O)O)c(F)c3)CCN2S(=O)(=O)c2ccc(CC)cc2)cc1
test target: HCV polymerase (NS5B) type 1a (Hepatitis C virus genotype 1a, UniProt P26664)
pIC50: < 6.00
//
line notation: O=C(NCc1ccc(OC(F)F)c(F)c1)[C@H]1CN(c2nc3nc(C(F)(F)F)ncc3s2)CCN1S(=O)(=O)c1ccc(C(F)(F)F)cc1
test target: HCV polymerase (NS5B) type 1a (Hepatitis C virus genotype 1a, UniProt P26664)
pIC50: > 7.00

====

test target: HCV polymerase (NS5B) type 1a (Hepatitis C virus genotype 1a)
Construct: made in house; host or cells: Escherichia coli (by the 'similar method' of the 1b enzyme)
assay info: Assay of enzyme (HCV polymerase) inhibitory activity, type 1a enzyme
Assay type: biochemical, HCV type 1a (cloned from the blood of patients)
experimental setup: HCV polymerase inhibitory activity (IC50), 1a, type 1a enzyme 1.5 μg/ml, 25° C., 60 min
Counter-ions that a name gives are not always drawn.
Recorded IC50 values for a group of molecules are listed next.

molecule: CC(=O)N1CCN(S(=O)(=O)c2ccc3c(c2)CCCCC3)[C@@H](C(=O)NCc2ccc(C(C)C)cc2)C1 [Example 264]
test target: HCV polymerase (NS5B) type 1a (Hepatitis C virus genotype 1a)
IC50: < 100 nM

molecule: CC(C)c1ccc(CNC(=O)[C@H]2CNCCN2S(=O)(=O)c2ccc(C(F)(F)F)cc2)cc1 [Example 1, hydrochloride]
test target: HCV polymerase (NS5B) type 1a (Hepatitis C virus genotype 1a)
IC50: > 1000 nM

molecule: CC(C)c1ccc(CNC(=O)[C@H]2CN(C(=O)Cn3ncnn3)CCN2S(=O)(=O)c2ccc(C(F)(F)F)cc2)cc1 [Example 278]
test target: HCV polymerase (NS5B) type 1a (Hepatitis C virus genotype 1a)
IC50: < 100 nM

molecule: COc1ccc(S(=O)(=O)N2CCN(C(C)=O)C[C@@H]2C(=O)NCc2ccc(C(C)C)cc2)cc1CCC(=O)O [Example 222]
test target: HCV polymerase (NS5B) type 1a (Hepatitis C virus genotype 1a)
IC50: 100 to 1000 nM

molecule: CCC(F)(F)c1ccc(CNC(=O)[C@H]2CN(C(=O)Cn3cnnn3)CCN2S(=O)(=O)c2ccc(OC(F)(F)F)cc2)cc1 [Example 464]
test target: HCV polymerase (NS5B) type 1a (Hepatitis C virus genotype 1a)
IC50: < 100 nM

molecule: CC(=O)N1CCN(S(=O)(=O)c2ccc(C(C)C)cc2)C(C(=O)NCc2ccc(C(C)(C)C)cc2)C1 (centres unmarked) [Example 68]
test target: HCV polymerase (NS5B) type 1a (Hepatitis C virus genotype 1a)
IC50: 100 to 1000 nM

molecule: CC(=O)N1CCN(S(=O)(=O)c2ccc(C(C)C)cc2)C(C(=O)NCCCc2ccccc2)C1 (centres unmarked) [Example 145]
test target: HCV polymerase (NS5B) type 1a (Hepatitis C virus genotype 1a)
IC50: > 1000 nM

molecule: CCCc1ccc(CNC(=O)[C@H]2CN(C(=O)Nc3ccncc3)CCN2S(=O)(=O)c2ccc(OC(F)(F)F)cc2)cc1 [Example 436]
test target: HCV polymerase (NS5B) type 1a (Hepatitis C virus genotype 1a)
IC50: < 100 nM

molecule: CCOC(=O)CCCCCC(=O)N1CCN(S(=O)(=O)c2ccc(C(F)(F)F)cc2)[C@@H](C(=O)NCc2ccc(C(C)C)cc2)C1 [Example 316]
test target: HCV polymerase (NS5B) type 1a (Hepatitis C virus genotype 1a)
IC50: 100 to 1000 nM

molecule: CCOC(=O)Cc1nnn(CC(=O)N2CCN(S(=O)(=O)c3ccc(C(F)(F)F)cc3)[C@@H](C(=O)NCc3ccc(C(C)C)cc3)C2)n1 [Example 309]
test target: HCV polymerase (NS5B) type 1a (Hepatitis C virus genotype 1a)
IC50: < 100 nM

molecule: CC(C)(C)OC(=O)N1CCc2nc(N3CCN(S(=O)(=O)c4ccc(OC(F)(F)F)cc4)[C@@H](C(=O)NCc4ccc(C(C)(C)C)cc4)C3)sc2C1 [Example 587]
test target: HCV polymerase (NS5B) type 1a (Hepatitis C virus genotype 1a)
IC50: 100 to 1000 nM

molecule: CC(=O)N1CCN(S(=O)(=O)c2ccc3c(c2)N(C)CCC3)[C@@H](C(=O)NCc2ccc(C(C)C)cc2)C1 [Example 307]
test target: HCV polymerase (NS5B) type 1a (Hepatitis C virus genotype 1a)
IC50: 100 to 1000 nM

molecule: CC(C)c1ccc(CNC(=O)[C@H]2CN(c3nc(CC(=O)O)cs3)CCN2S(=O)(=O)c2ccc(C(F)(F)F)cc2)cc1 [Example 259]
test target: HCV polymerase (NS5B) type 1a (Hepatitis C virus genotype 1a)
IC50: 100 to 1000 nM

molecule: Cc1nc(N2CCN(S(=O)(=O)c3ccc(OC(F)(F)F)cc3)[C@@H](C(=O)NCc3ccc(C(C)C)cc3)C2)sc1C(=O)NCCC(=O)OC(C)(C)C [Example 359]
test target: HCV polymerase (NS5B) type 1a (Hepatitis C virus genotype 1a)
IC50: < 100 nM

molecule: COc1nc(CNC(=O)[C@H]2CN(C(C)=O)CCN2S(=O)(=O)c2ccc(OC(F)(F)F)cc2)ccc1C [Example 649]
test target: HCV polymerase (NS5B) type 1a (Hepatitis C virus genotype 1a)
IC50: > 1000 nM

molecule: Cc1nc(N2CCN(S(=O)(=O)c3ccc(C(F)(F)F)cc3)[C@@H](C(=O)NCc3ccc(C(C)C)cc3)C2)sc1C(=O)O [Example 6]
test target: HCV polymerase (NS5B) type 1a (Hepatitis C virus genotype 1a)
IC50: < 100 nM

molecule: CC(=O)N1CCN(S(=O)(=O)c2ccc(CC(C)C)cc2)[C@@H](C(=O)NCc2ccc(C(C)C)cc2)C1 [Example 194]
test target: HCV polymerase (NS5B) type 1a (Hepatitis C virus genotype 1a)
IC50: < 100 nM

molecule: COC(=O)c1ccc(NC(=O)N2CCN(S(=O)(=O)c3ccc(C(F)(F)F)cc3)[C@@H](C(=O)NCc3ccc(C(C)C)cc3)C2)cc1 [Example 276]
test target: HCV polymerase (NS5B) type 1a (Hepatitis C virus genotype 1a)
IC50: 100 to 1000 nM

molecule: CCC(F)(F)c1ccc(CNC(=O)[C@H]2CN(C(=O)c3cscn3)CCN2S(=O)(=O)c2ccc(OC(F)(F)F)cc2)cc1 [Example 520]
test target: HCV polymerase (NS5B) type 1a (Hepatitis C virus genotype 1a)
IC50: > 1000 nM

molecule: CC(=O)N1CCN(S(=O)(=O)c2ccc(OC(F)(F)F)c(I)c2)[C@@H](C(=O)NCc2ccc(C(C)C)cc2)C1 [Example 10]
test target: HCV polymerase (NS5B) type 1a (Hepatitis C virus genotype 1a)
IC50: < 100 nM

molecule: CC(C)c1ccc(CNC(=O)[C@H]2CN(C(=O)Cn3nnnc3CC(=O)O)CCN2S(=O)(=O)c2ccc(C(F)(F)F)cc2)cc1 [Example 312]
test target: HCV polymerase (NS5B) type 1a (Hepatitis C virus genotype 1a)
IC50: > 1000 nM

molecule: CC(=O)N1CCN(S(=O)(=O)c2ccc(C(C)C)cc2)[C@@H](C(=O)NCCc2cccnc2)C1 [Example 397]
test target: HCV polymerase (NS5B) type 1a (Hepatitis C virus genotype 1a)
IC50: > 1000 nM

molecule: CC(C)c1ccc(CNC(=O)[C@H]2CN(c3nc(C(=O)O)cs3)CCN2S(=O)(=O)c2ccc(C(F)(F)F)cc2)cc1 [Example 244]
test target: HCV polymerase (NS5B) type 1a (Hepatitis C virus genotype 1a)
IC50: 100 to 1000 nM

molecule: CC(C)(C)c1ccc(CNC(=O)[C@H]2CN(c3nc4c(s3)CN(S(C)(=O)=O)CC4)CCN2S(=O)(=O)c2ccc(OC(F)(F)F)cc2)cc1 [Example 600]
test target: HCV polymerase (NS5B) type 1a (Hepatitis C virus genotype 1a)
IC50: < 100 nM

molecule: CCC(F)(F)c1ccc(CNC(=O)[C@H]2CN(c3nc(NC(C)=O)ns3)CCN2S(=O)(=O)c2ccc(OC(F)(F)F)cc2)cc1 [Example 596]
test target: HCV polymerase (NS5B) type 1a (Hepatitis C virus genotype 1a)
IC50: < 100 nM

molecule: CCCc1ccc(S(=O)(=O)N2CCN(c3nc(C)c(C(=O)OC(C)(C)C)s3)C[C@@H]2C(=O)NCc2ccc(C(C)C)cc2C)cc1 [Example 330]
test target: HCV polymerase (NS5B) type 1a (Hepatitis C virus genotype 1a)
IC50: > 1000 nM
